PROTOCOL_CONDITIONS: in methanol, 285.65 K
MEASURE_NAME: solubility (mole fraction)
Answers are plain numbers.

In: Requested read-out: solubility (mole fraction). Entry: `O=[N+]([O-])c1ccc(Cl)c(Cl)c1`
Out: 0.0353

====

PROTOCOL_CONDITIONS: in methanol, 280.65 K
MEASURE_NAME: solubility (mole fraction)
Numbers only.

In: Requested read-out: solubility (mole fraction). Entry: `O=[N+]([O-])c1ccc(Cl)c(Cl)c1`
Out: 0.0251

====

PROTOCOL_CONDITIONS: in methanol, 290.65 K
MEASURE_NAME: solubility (mole fraction)
Answers are plain numbers.

In: Requested read-out: solubility (mole fraction). Entry: `O=[N+]([O-])c1ccc(Cl)c(Cl)c1`
Out: 0.0505

====

PROTOCOL_CONDITIONS: in ethanol, 290.65 K
MEASURE_NAME: solubility (mole fraction)

In: Requested read-out: solubility (mole fraction). Entry: `O=[N+]([O-])c1ccc(Cl)c(Cl)c1`
Out: 0.0661

====

PROTOCOL_CONDITIONS: in ethanol, 293.15 K
MEASURE_NAME: solubility (mole fraction)
Give bare numbers.

In: Requested read-out: solubility (mole fraction). Entry: `O=[N+]([O-])c1ccc(Cl)c(Cl)c1`
Out: 0.0769

====

PROTOCOL_CONDITIONS: in ethanol, 295.65 K
MEASURE_NAME: solubility (mole fraction)
One number for each entry.

In: Requested read-out: solubility (mole fraction). Entry: `O=[N+]([O-])c1ccc(Cl)c(Cl)c1`
Out: 0.0888

====

PROTOCOL_CONDITIONS: in ethanol, 300.65 K
MEASURE_NAME: solubility (mole fraction)
Numbers only.

In: Requested read-out: solubility (mole fraction). Entry: `O=[N+]([O-])c1ccc(Cl)c(Cl)c1`
Out: 0.111

====

PROTOCOL_CONDITIONS: in methanol, 293.15 K
MEASURE_NAME: solubility (mole fraction)
One number for each entry.

In: Requested read-out: solubility (mole fraction). Entry: `O=[N+]([O-])c1ccc(Cl)c(Cl)c1`
Out: 0.0611

====

PROTOCOL_CONDITIONS: in methanol, 303.15 K
MEASURE_NAME: solubility (mole fraction)
Numbers only.

In: Requested read-out: solubility (mole fraction). Entry: `O=[N+]([O-])c1ccc(Cl)c(Cl)c1`
Out: 0.125

====

PROTOCOL_CONDITIONS: in methanol, 283.15 K
MEASURE_NAME: solubility (mole fraction)
Numbers only.

In: Requested read-out: solubility (mole fraction). Entry: `O=[N+]([O-])c1ccc(Cl)c(Cl)c1`
Out: 0.0296
